src = patent US9242987B2

# Target: JAK3 (Homo sapiens, UniProt P52333)
# Construct: endogenous in cells
# Sequence (P52333 whole entry): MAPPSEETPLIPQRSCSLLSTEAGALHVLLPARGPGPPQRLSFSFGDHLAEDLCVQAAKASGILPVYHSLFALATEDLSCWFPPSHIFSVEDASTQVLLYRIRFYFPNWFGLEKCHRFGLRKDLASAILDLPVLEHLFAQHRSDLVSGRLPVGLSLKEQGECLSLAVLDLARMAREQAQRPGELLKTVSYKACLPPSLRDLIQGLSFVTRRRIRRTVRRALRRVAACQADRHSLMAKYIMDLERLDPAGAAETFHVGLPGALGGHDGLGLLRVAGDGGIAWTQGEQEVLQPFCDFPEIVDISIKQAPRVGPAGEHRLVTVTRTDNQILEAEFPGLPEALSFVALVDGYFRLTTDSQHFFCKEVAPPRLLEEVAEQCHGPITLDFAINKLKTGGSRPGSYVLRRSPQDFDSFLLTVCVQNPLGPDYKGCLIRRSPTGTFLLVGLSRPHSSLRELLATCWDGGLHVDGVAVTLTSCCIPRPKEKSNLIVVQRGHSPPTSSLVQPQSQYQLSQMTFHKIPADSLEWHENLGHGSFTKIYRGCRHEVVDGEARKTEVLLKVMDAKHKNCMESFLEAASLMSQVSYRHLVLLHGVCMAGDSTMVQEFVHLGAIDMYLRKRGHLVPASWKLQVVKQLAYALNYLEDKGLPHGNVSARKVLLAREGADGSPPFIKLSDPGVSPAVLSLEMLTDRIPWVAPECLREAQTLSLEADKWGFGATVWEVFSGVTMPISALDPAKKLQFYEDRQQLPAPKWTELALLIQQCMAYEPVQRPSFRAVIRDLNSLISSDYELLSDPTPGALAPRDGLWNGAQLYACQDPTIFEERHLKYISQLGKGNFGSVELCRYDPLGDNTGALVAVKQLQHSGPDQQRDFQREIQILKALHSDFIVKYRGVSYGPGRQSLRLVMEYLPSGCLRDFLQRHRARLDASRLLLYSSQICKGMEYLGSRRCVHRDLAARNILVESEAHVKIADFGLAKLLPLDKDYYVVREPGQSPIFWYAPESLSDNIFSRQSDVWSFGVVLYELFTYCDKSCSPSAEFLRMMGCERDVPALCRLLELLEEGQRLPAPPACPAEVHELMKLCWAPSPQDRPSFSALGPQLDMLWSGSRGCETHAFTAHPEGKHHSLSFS
# Protocol: Kinobeads assay, JAK3
# Protocol Conditions: mixed Molt4/Ramos cell lysate, dot blot detection
Measure: IC50

smiles_entry=Cn1cnc(Nc2ncc3cnn(Cc4ccccc4F)c3n2)c1 measure=IC50 obs_value="100 to 1000 nM"

Lookup: What does the record list as IC50 for Cn1cc(Nc2ncc3cnn(Cc4cccnc4F)c3n2)cn1 ?
Found: < 100 nM

Lookup: Endpoint output: IC50 of Cc1c(F)cccc1Cn1ncc2cnc(Nc3cnn(CC(F)F)c3)nc21 . Value?
Found: 100 to 1000 nM

Lookup: So what's the measured IC50 for this one? Cn1cc(Nc2ncc3cnn(Cc4cccc(-c5ccncc5)c4)c3n2)cn1
Found: < 100 nM

Lookup: # get_value(readout='IC50', item= Cn1cc(Nc2ncc3cnn(-c4ccc(Cl)cc4)c3n2)cn1 )
Found: 100 to 1000 nM

Lookup: Would you kindly share the measured IC50 for CNC(=O)Cn1cc(Nc2ncc3cnn(Cc4ccccc4)c3n2)cn1 ?
Found: < 100 nM

Lookup: For Cn1cc(Nc2ncc3cnn(-c4cccc(C(=O)N5CCOCC5)c4)c3n2)cn1 , what is its reported IC50?
Found: 100 to 1000 nM

Lookup: Consider the compound Cc1nc(-n2ncc3cnc(Nc4cnn(C)c4)nc32)ccc1NS(C)(=O)=O and give its measured IC50.
Found: 100 to 1000 nM

Lookup: Which IC50 is reported for this compound? COCCOc1cccc(Cn2ncc3cnc(Nc4cnn(C)c4)nc32)c1C
Found: < 100 nM
